# TARGET_DESC: TrkB (Homo sapiens (Human), UniProt Q16620 32-430)
# Sequence (Q16620 32-430 limits assumed): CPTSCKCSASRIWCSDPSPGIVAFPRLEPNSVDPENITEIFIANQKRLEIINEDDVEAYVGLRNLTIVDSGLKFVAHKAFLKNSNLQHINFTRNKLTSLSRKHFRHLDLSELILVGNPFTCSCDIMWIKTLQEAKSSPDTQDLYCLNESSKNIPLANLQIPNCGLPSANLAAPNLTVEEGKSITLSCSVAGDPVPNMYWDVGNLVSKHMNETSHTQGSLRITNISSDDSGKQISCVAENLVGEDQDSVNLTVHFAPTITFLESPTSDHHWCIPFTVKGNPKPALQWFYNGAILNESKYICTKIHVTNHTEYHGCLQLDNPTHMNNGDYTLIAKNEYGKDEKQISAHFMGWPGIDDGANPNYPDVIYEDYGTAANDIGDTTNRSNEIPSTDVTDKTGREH
# METHOD: koff of Fab at 25 C; T1/2=Log2/koff
The following binders are listed with their measured T1/2 values.
Value expressed in min; do not type the unit.

Example binders with recorded T1/2:
BINDER | MEASURED_QUANTITY | RECORDED_NUMBER
13-C12 (Fab, V domains shown, Fab) VH: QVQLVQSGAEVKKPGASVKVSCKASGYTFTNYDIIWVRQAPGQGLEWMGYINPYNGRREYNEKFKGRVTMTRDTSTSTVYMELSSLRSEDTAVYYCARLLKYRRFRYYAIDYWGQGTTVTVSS VL: DIQMTQSPSSLSASVGDRVTITCRASENVYRNLAWYQQKPGKAPKLLIYAASNLQSGVPSRFSGSGSGTDYTFTISSLQPEDIATYYCQHFVYSPFTFGQGTKLEIK | T1/2 | 13
16-H4 (Fab, V domains shown, Fab) VH: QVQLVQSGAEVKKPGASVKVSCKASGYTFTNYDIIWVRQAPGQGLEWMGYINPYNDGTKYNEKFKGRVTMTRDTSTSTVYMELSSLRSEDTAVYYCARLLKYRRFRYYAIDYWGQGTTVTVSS VL: DIQMTQSPSSLSASVGDRVTITCRTSESVYSNLAWYQQKPGKAPKLLIYAASNLQSGVPSRFSGSGSGTDFTFTISSLQPEDIATYYCQHFWASPFTFGQGTKLEIK | T1/2 | 6
5-G4 (Fab, V domains shown, Fab) VH: QVQLVQSGAEVKKPGASVKVSCKASGYTFTNYVILWVRQAPGQGLEWMGYINPYNDGTKYNEKFKGRVTMTRDTSTSTVYMELSSLRSEDTAVYYCARLLKYRRFSYYAIDYWGQGTTVTVSS VL: DIQMTQSPSSLSASVGDRVTITCRASENVYSNLAWYQQKPGKAPKLLIYAASNLQSGVPSRFSGSGSGTDFTFTISSLQPEDIATYYCQHFWGSPFTFGQGTKLEIK | T1/2 | 1.35
1-G12 (Fab, V domains shown, Fab) VH: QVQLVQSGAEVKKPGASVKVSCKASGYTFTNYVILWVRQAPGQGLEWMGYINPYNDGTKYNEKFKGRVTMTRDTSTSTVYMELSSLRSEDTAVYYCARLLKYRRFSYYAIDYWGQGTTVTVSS VL: DIQMTQSPSSLSASVGDRVTITCRASENVYSNLAWYQQKPGKAPKLLIYAASNLQSGVPSRFSGSGSGTDFTFTISSLQPEDIATYYCQHFWYSPFGFGQGTKLEIK | T1/2 | 0.4

Entry 16-C1 (Fab, V domains shown, Fab) VH: QVQLVQSGAEVKKPGASVKVSCKASGYTFTNYDIIWVRQAPGQGLEWMGYINPYNDGTKYNEKFKGRVTMTRDTSTSTVYMELSSLRSEDTAVYYCARLLKYRRFKYYAIDYWGQGTTVTVSS VL: DIQMTQSPSSLSASVGDRVTITCRASENVYSNLAWYQQKPGKAPKLLIYAASNLQSGVPSRFSGSGSGTDFTFTISSLQPEDIATYYCQHFWYSPWTFGQGTKLEIK ; T1/2 = 6
